Overview of recorded IC50 for various compounds
Target: Tyrosine-protein phosphatase non-receptor type 1 (Homo sapiens, UniProt P18031)
Sequence (P18031 whole entry): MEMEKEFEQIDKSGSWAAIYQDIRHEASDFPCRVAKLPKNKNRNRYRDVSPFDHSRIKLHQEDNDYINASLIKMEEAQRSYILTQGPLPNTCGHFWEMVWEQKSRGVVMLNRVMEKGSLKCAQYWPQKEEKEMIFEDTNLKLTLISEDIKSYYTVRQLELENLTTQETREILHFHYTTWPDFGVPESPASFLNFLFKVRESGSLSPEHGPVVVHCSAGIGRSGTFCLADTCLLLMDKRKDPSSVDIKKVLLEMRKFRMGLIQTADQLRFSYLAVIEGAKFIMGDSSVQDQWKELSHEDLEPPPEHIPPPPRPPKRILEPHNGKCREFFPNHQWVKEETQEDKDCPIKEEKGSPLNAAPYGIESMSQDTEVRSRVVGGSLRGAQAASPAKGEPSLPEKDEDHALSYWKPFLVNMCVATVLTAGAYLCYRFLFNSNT
Assay: Inhibitory Activity against Recombinant Human PTP1

Supply measured IC50 of O=C1C=CC(=O)c2ncccc21 in your reply.
> 10 µM

Supply measured IC50 of O=C1C(Cl)=C(NCCN2CCOCC2)C(=O)c2ncccc21 in your reply.
> 100 µM

Supply measured IC50 of O=C1C(Cl)=C(NCCN2CCOCC2)C(=O)c2cnncc21 in your reply.
9.8 µM

Supply measured IC50 of O=C1C(Cl)=C(NCCc2c[nH]c3ccccc23)C(=O)c2ncccc21 in your reply.
> 10 µM

Supply measured IC50 of O=C1C(Cl)=C(Cl)C(=O)c2ncccc21 in your reply.
> 10 µM

* * *

Molecular target: M-phase inducer phosphatase 2 (Homo sapiens, UniProt P30305)
Sequence (P30305 whole entry): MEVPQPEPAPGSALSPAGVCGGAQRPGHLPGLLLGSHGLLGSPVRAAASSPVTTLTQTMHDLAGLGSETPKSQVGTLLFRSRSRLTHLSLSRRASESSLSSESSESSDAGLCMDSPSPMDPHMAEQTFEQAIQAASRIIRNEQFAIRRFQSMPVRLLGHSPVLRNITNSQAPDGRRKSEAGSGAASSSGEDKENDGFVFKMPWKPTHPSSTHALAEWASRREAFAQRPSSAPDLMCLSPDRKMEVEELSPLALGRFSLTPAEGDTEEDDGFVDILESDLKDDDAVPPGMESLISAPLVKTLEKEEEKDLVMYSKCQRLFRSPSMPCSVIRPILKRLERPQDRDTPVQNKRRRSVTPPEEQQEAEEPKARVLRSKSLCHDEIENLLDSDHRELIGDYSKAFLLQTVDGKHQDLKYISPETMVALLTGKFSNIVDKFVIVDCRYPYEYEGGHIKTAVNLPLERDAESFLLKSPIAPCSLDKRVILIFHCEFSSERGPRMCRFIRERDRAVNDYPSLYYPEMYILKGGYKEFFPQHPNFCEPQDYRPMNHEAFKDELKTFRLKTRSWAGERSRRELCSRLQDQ
Assay: Inhibitory activity against recombinant human cell division cycle 25B
Measure: IC50 (µM)

>>> value_measured("O=C1C(Cl)=C(Cl)C(=O)c2cnncc21")
8.9

a = O=C1C(Cl)=C(NCCc2c[nH]c3ccccc23)C(=O)c2ncccc21
b = COc1cc(CC/N=C2\C=C(O)c3cccnc3C2=O)ccc1O
Param metric = IC50; output whichever of a , b has the minimum value. # answer = label of selected item
b
(b: 0.45 µM, a: 5.1 µM)
